Biological target: T1, human BCMA protein (human, UniProt Q02223 1-54, limits assumed)
T1 sequence: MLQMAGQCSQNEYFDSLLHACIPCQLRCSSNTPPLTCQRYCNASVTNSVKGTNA
Assay: affinity to human BCMA protein, method not stated
Quantity Name: pKd
Scale for pKd: -log10 of concentration given in mol/L; no unit attached.

- Binder: "BCMA targeting trispecific protein 01E05 (other, trispecific; not shown: the C-terminal 6xHis tag follows those missing domains and is left out) VHH: EVQLVESGGGLVQPGRSLTLSCAASTNIFSRSPMGWYRQAPGKQRELVAAIHGTSTLYADSVKGRFTISRDNAKNSIYLQMNSLRPEDTALYYCNKVPWGKYHPRNVYWGQGTQVTVSS"
  pKd: 7.93
- Binder: "BCMA targeting trispecific protein 02A08 (other, not shown: large carriers; small tags and cut ends, trispecific) VHH: EVQLVESGGGLVQPGRSLTLSCAASTNIFSRSPMGWYRQAPGKQRELVAAIHGESTLYADSVKGRFTISRDNAKNSIYLQMNSLRPEDTALYYCNKVPWGRYHPGNVYWGQGTQVTVSS"
  pKd: 8.02
- Binder: "BCMA targeting trispecific protein 01G09 (other, trispecific; not shown: anti-albumin domain, anti-CD3 domain and the linkers of the trispecific; the C-terminal His6 that follows them is left out) VHH: EVQLVESGGGLVQPGRSLTLSCAASTNIFNISPMGWYRQAPGKQRELVAAIHGFSTYYADSVKGRFTISRDNAKNSIYLQMNSLRPEDTALYYCNKVPWGRYHPRNVYWGQGTQVTVSS"
  pKd: 7.06

Now examine the next entry.
Answer with reported pKd of BCMA targeting trispecific protein 02E09 (other, not shown: large carriers; small tags and cut ends, trispecific) VHH: EVQLVESGGGLVQPGRSLTLSCAASTNDFSISPMGWYRQAPGKQRELVAAIHGGSTLYADSVKGRFTISRDNAKNSIYLQMNSLRPEDTALYYCNKVPWGDYHPRNVAWGQGTQVTVSS
7.68
